Target: UniProtKB P30542
Test: Displacement of [3H]CHA from human adenosine A1 receptor expressed in CHO cells
Type: cell-based
REPORTED_ENDPOINT: Activity (%)
# number only, unit % dropped from output

A selection of reference data follows.
SMILES_STR: CCNC(=O)[C@H]1O[C@@H](n2cnc3c(NNC(=O)c4cc(C)on4)nc(Cl)nc32)[C@H](O)[C@@H]1O
TEST_TARGET: UniProtKB P30542
Activity (%): 7
//
SMILES_STR: CCNC(=O)[C@H]1O[C@@H](n2cnc3c(NNC(=O)c4cccnc4)ncnc32)[C@H](O)[C@@H]1O
TEST_TARGET: UniProtKB P30542
Activity (%): 11

Record `CCNC(=O)[C@H]1O[C@@H](n2cnc3c(NNC(=O)c4ccc(Cl)cc4)ncnc32)[C@H](O)[C@@H]1O` , field Activity: 5

====

Documented pKi across a set of compounds
Target: Adenosine receptor A2a (Homo sapiens, UniProt P29274)
The scale used: pKi is minus the common logarithm of the concentration in molar units.

Recorded pKi, per entry:
SMILES_STR: CCNC(=O)[C@H]1O[C@@H](n2cnc3c(NNC(=O)c4sccc4C)nc(Cl)nc32)[C@H](O)[C@@H]1O
pKi: 5.42
//
SMILES_STR: CCNC(=O)[C@H]1O[C@@H](n2cnc3c(NNC(=O)c4ccsc4)nc(Cl)nc32)[C@H](O)[C@@H]1O
pKi: 5.48
//
SMILES_STR: CCNC(=O)[C@H]1O[C@@H](n2cnc3c(NNC(=O)c4ccco4)nc(Cl)nc32)[C@H](O)[C@@H]1O
pKi: 5.31

// moving on: another record for pKi
Reported pKi for `CCNC(=O)[C@H]1O[C@@H](n2cnc3c(NNC(=O)c4cccs4)nc(Cl)nc32)[C@H](O)[C@@H]1O` was 5.77

====

Target: Adenosine receptor A2b (Homo sapiens) (UniProt P29275)
Sequence (P29275 whole entry): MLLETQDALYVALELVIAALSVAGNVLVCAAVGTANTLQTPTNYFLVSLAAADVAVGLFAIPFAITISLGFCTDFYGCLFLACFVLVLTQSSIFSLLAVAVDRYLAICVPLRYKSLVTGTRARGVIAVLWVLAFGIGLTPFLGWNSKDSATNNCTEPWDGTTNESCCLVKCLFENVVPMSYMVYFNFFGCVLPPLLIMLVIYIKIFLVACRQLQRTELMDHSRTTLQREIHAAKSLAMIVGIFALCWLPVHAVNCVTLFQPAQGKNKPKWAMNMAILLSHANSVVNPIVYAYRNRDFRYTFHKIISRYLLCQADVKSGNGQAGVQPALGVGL
Assay: Activity at human adenosine A2B receptor expressed in CHO cells assessed as stimulation of cAMP levels
Type: functional, cell-based
Parameters: concentration or dose not given beside the values
REPORTED_ENDPOINT: Activity
Answer with the number, then the unit.

# example entries with known answers
SMILES_STR: CCNC(=O)[C@H]1O[C@@H](n2cnc3c(NNC(=O)c4cccnc4)ncnc32)[C@H](O)[C@@H]1O
TEST_TARGET: Adenosine receptor A2b (Homo sapiens) (UniProt P29275)
Activity: 9%
--
SMILES_STR: CCNC(=O)[C@H]1O[C@@H](n2cnc3c(NNC(=O)c4ccc(Cl)cc4)ncnc32)[C@H](O)[C@@H]1O
TEST_TARGET: Adenosine receptor A2b (Homo sapiens) (UniProt P29275)
Activity: 6%
--
SMILES_STR: CCNC(=O)[C@H]1O[C@@H](n2cnc3c(NNC(=O)c4ccccc4)nc(Cl)nc32)[C@H](O)[C@@H]1O
TEST_TARGET: Adenosine receptor A2b (Homo sapiens) (UniProt P29275)
Activity: 5%
--
SMILES_STR: CCNC(=O)[C@H]1O[C@@H](n2cnc3c(NNC(=O)c4nc([N+](=O)[O-])cn4C)ncnc32)[C@H](O)[C@@H]1O
TEST_TARGET: Adenosine receptor A2b (Homo sapiens) (UniProt P29275)
Activity: 14%
--
SMILES_STR: CCNC(=O)[C@H]1O[C@@H](n2cnc3c(NNC(=O)c4cc(-c5ccccc5)on4)nc(Cl)nc32)[C@H](O)[C@@H]1O
TEST_TARGET: Adenosine receptor A2b (Homo sapiens) (UniProt P29275)
Activity: 24%

Activity measured on `CCNC(=O)[C@H]1O[C@@H](n2cnc3c(NNC(=O)c4cc(C)on4)nc(Cl)nc32)[C@H](O)[C@@H]1O` = 21%

What the record says about `CCNC(=O)[C@H]1O[C@@H](n2cnc3c(NNC(=O)c4ccccc4)ncnc32)[C@H](O)[C@@H]1O` : Activity is 10%

====

Target: Adenosine receptor A2a (Homo sapiens)
Test: Displacement of [3H]CGS-21680 from human adenosine A2A receptor expressed in CHO cells
Type: cell-based
Design: concentration or dose not given beside the values
REPORTED_ENDPOINT: Activity
Field: value (include unit after the number)

SMILES_STR: CCNC(=O)[C@H]1O[C@@H](n2cnc3c(NNC(=O)c4ccc(Cl)cc4)ncnc32)[C@H](O)[C@@H]1O
REPORTED_MEASUREMENT: 8%

SMILES_STR: CCNC(=O)[C@H]1O[C@@H](n2cnc3c(NNC(=O)c4ccccc4)nc(Cl)nc32)[C@H](O)[C@@H]1O
REPORTED_MEASUREMENT: 40%

SMILES_STR: CCNC(=O)[C@H]1O[C@@H](n2cnc3c(NNC(=O)c4ccccc4)ncnc32)[C@H](O)[C@@H]1O
REPORTED_MEASUREMENT: 18%

SMILES_STR: CCNC(=O)[C@H]1O[C@@H](n2cnc3c(NNC(=O)c4nc([N+](=O)[O-])cn4C)ncnc32)[C@H](O)[C@@H]1O
REPORTED_MEASUREMENT: 12%

SMILES_STR: CCNC(=O)[C@H]1O[C@@H](n2cnc3c(NNC(=O)c4cc(C)on4)nc(Cl)nc32)[C@H](O)[C@@H]1O
REPORTED_MEASUREMENT: 3%

SMILES_STR: CCNC(=O)[C@H]1O[C@@H](n2cnc3c(NNC(=O)c4cc(-c5ccccc5)on4)nc(Cl)nc32)[C@H](O)[C@@H]1O
REPORTED_MEASUREMENT: 2%

The measured Activity associated with `CCNC(=O)[C@H]1O[C@@H](n2cnc3c(NNC(=O)c4cccnc4)ncnc32)[C@H](O)[C@@H]1O` reads 7%

====

Molecular target: Adenosine receptor A1 (Homo sapiens) (UniProt P30542)
Assay: Displacement of [3H]CHA from human adenosine A1 receptor expressed in CHO cells
Format: cell-based
REPORTED_ENDPOINT: Activity
State the value, then name its unit.

Short answer for `CCNC(=O)[C@H]1O[C@@H](n2cnc3c(NNC(=O)c4nc([N+](=O)[O-])cn4C)ncnc32)[C@H](O)[C@@H]1O` : Activity was 7%

Per the records, this compound ( `CCNC(=O)[C@H]1O[C@@H](n2cnc3c(NNC(=O)c4ccccc4)ncnc32)[C@H](O)[C@@H]1O` ) has Activity equal to 35%

Per the records, this compound ( `CCNC(=O)[C@H]1O[C@@H](n2cnc3c(NNC(=O)c4cc(-c5ccccc5)on4)nc(Cl)nc32)[C@H](O)[C@@H]1O` ) has Activity equal to 5%

compound `CCNC(=O)[C@H]1O[C@@H](n2cnc3c(NNC(=O)c4ccccc4)nc(Cl)nc32)[C@H](O)[C@@H]1O` , Activity observed: 37%

====

Target: Adenosine receptor A2b (Homo sapiens, UniProt P29275)
Sequence (P29275 whole entry): as above
Experiment: Activity at human adenosine A2B receptor expressed in CHO cells assessed as stimulation of cAMP levels
pEC50: −log10 of the molar value.
REPORTED_ENDPOINT: pEC50

Sample answers from the record:
SMILES_STR: CCNC(=O)[C@H]1O[C@@H](n2cnc3c(NNC(=O)c4ccccc4)nc(Cl)nc32)[C@H](O)[C@@H]1O
REPORTED_MEASUREMENT: < 5.30
//
SMILES_STR: CCNC(=O)[C@H]1O[C@@H](n2cnc3c(NNC(=O)c4nc([N+](=O)[O-])cn4C)ncnc32)[C@H](O)[C@@H]1O
REPORTED_MEASUREMENT: < 5.30

The measured pEC50 associated with `CCNC(=O)[C@H]1O[C@@H](n2cnc3c(NNC(=O)c4cc(-c5ccccc5)on4)nc(Cl)nc32)[C@H](O)[C@@H]1O` reads < 5.30

// field: pEC50; key: `CCNC(=O)[C@H]1O[C@@H](n2cnc3c(NNC(=O)c4ccc(Cl)cc4)ncnc32)[C@H](O)[C@@H]1O` ; value = < 5.30

The recorded pEC50 for entry `CCNC(=O)[C@H]1O[C@@H](n2cnc3c(NNC(=O)c4cccnc4)ncnc32)[C@H](O)[C@@H]1O` equals < 5.30

Entry `CCNC(=O)[C@H]1O[C@@H](n2cnc3c(NNC(=O)c4ccccc4)ncnc32)[C@H](O)[C@@H]1O` , pEC50 reported as < 5.30

// recorded pEC50 for `CCNC(=O)[C@H]1O[C@@H](n2cnc3c(NNC(=O)c4ccc(Br)o4)ncnc32)[C@H](O)[C@@H]1O` : 6.43

Reported pEC50 of `CCNC(=O)[C@H]1O[C@@H](n2cnc3c(NNC(=O)c4cc(C)on4)nc(Cl)nc32)[C@H](O)[C@@H]1O` : < 5.30

====

Parameter: Activity. Scope: all listed entries.
Biological target: Adenosine receptor A3 (Homo sapiens) (UniProt P0DMS8)
Sequence (P0DMS8 whole entry): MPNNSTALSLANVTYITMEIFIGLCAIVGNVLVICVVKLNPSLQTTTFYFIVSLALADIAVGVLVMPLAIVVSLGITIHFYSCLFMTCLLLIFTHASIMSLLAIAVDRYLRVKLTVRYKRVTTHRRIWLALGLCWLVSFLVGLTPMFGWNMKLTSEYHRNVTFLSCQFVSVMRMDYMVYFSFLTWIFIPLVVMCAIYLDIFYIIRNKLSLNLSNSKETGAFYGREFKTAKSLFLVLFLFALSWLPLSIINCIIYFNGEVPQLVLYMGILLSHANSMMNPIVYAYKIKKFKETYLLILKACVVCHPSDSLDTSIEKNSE
Assay: Displacement of [125I]AB-MECA from human adenosine A3 receptor expressed in CHO cells
Assay type: cell-based
Kindly answer with a numeric value in %, unit omitted.

# count of solved cases: 10
SMILES_STR: CCNC(=O)[C@H]1O[C@@H](n2cnc3c(NNC(=O)c4cccnc4)ncnc32)[C@H](O)[C@@H]1O
REPORTED_ENDPOINT: Activity
REPORTED_MEASUREMENT: 17

SMILES_STR: CCNC(=O)[C@H]1O[C@@H](n2cnc3c(NNC(=O)c4ccccc4)ncnc32)[C@H](O)[C@@H]1O
REPORTED_ENDPOINT: Activity
REPORTED_MEASUREMENT: 8

SMILES_STR: CCNC(=O)[C@H]1O[C@@H](n2cnc3c(NNC(=O)c4ccc[nH]4)nc(Cl)nc32)[C@H](O)[C@@H]1O
REPORTED_ENDPOINT: Activity
REPORTED_MEASUREMENT: 11

SMILES_STR: CCNC(=O)[C@H]1O[C@@H](n2cnc3c(NNC(=O)c4cc(C)on4)nc(Cl)nc32)[C@H](O)[C@@H]1O
REPORTED_ENDPOINT: Activity
REPORTED_MEASUREMENT: 16

SMILES_STR: CCNC(=O)[C@H]1O[C@@H](n2cnc3c(NNC(=O)c4nc([N+](=O)[O-])cn4C)ncnc32)[C@H](O)[C@@H]1O
REPORTED_ENDPOINT: Activity
REPORTED_MEASUREMENT: 11

SMILES_STR: CCNC(=O)[C@H]1O[C@@H](n2cnc3c(NNC(=O)c4ccco4)nc(Cl)nc32)[C@H](O)[C@@H]1O
REPORTED_ENDPOINT: Activity
REPORTED_MEASUREMENT: 26

SMILES_STR: CCNC(=O)[C@H]1O[C@@H](n2cnc3c(NNC(=O)c4ccc(C)o4)ncnc32)[C@H](O)[C@@H]1O
REPORTED_ENDPOINT: Activity
REPORTED_MEASUREMENT: 15

SMILES_STR: CCNC(=O)[C@H]1O[C@@H](n2cnc3c(NNC(=O)c4ccc(C)s4)nc(Cl)nc32)[C@H](O)[C@@H]1O
REPORTED_ENDPOINT: Activity
REPORTED_MEASUREMENT: 17

SMILES_STR: CCNC(=O)[C@H]1O[C@@H](n2cnc3c(NNC(=O)c4ccc(Br)o4)ncnc32)[C@H](O)[C@@H]1O
REPORTED_ENDPOINT: Activity
REPORTED_MEASUREMENT: 13

SMILES_STR: CCNC(=O)[C@H]1O[C@@H](n2cnc3c(NNC(=O)c4ccco4)ncnc32)[C@H](O)[C@@H]1O
REPORTED_ENDPOINT: Activity
REPORTED_MEASUREMENT: 23

Let us examine a further case.
The value of Activity measured for the compound `CCNC(=O)[C@H]1O[C@@H](n2cnc3c(NNC(=O)c4cccs4)nc(Cl)nc32)[C@H](O)[C@@H]1O` turned out to be 12
